# System: HCV replication
# Protocol text: Replicon Assay (Huh-lucubineo-ET cells, luciferase readout)
# Assay type: cell-based
# Assay context: Hepatitis C virus; ET (Huh-lucubineo-ET) HCV replicon cell line; luciferase activity 48-72 hours after compound addition; 6 dilutions
Mark each entry yes if its EC50 sits below 700 nM, and no for all others.

Smiles data	Target entity	Category
COCCOc1ccc(-c2ccc(Cn3cc4nc(-c5cccc(F)c5F)nc-4cn3)nn2)c(C(F)(F)F)c1	HCV replication	yes
Oc1ccc(-c2ccc(Cn3cc4nc(-c5cccc(F)c5F)nc-4cn3)nn2)c(C(F)(F)F)c1	HCV replication	no
Fc1cccc(-c2nc3cnn(Cc4ccc(-c5ccc(OC(F)(F)F)cc5)nn4)cc-3n2)c1F	HCV replication	no
CC(C)COc1ccc(-c2ccc(Cn3cc4nc(-c5cccc(F)c5F)nc-4cn3)nn2)c(C(F)(F)F)c1	HCV replication	yes
Fc1cccc(-c2nc3cnn(Cc4ccc5ccccc5c4)cc-3n2)c1F	HCV replication	no

Query: I'd appreciate it if you could check whether `Fc1cccc(-c2nc3cnn(Cc4ccc(-c5ccc(-c6cccnc6)cc5C(F)(F)F)nn4)cc-3n2)c1F` has EC50 smaller than 700 nM.
Reply: yes

Query: I'd appreciate it if you could check whether `N#CCOc1ccc(-c2ccc(Cn3cc4nc(-c5cccc(F)c5F)nc-4cn3)nn2)c(C(F)(F)F)c1` has EC50 smaller than 700 nM.
Reply: yes

Query: I'd appreciate it if you could check whether `Fc1ccc(COc2ccc(Cn3cc4nc(-c5cccc(F)c5F)nc-4cn3)cc2)cc1` has EC50 smaller than 700 nM.
Reply: no

Query: I'd appreciate it if you could check whether `COc1ccc(-c2ccc(Cn3cc4nc(-c5cccc(F)c5F)nc-4cn3)c(Cl)n2)c(C(F)(F)F)c1` has EC50 smaller than 700 nM.
Reply: yes

Query: I'd appreciate it if you could check whether `Cc1ccc(-c2ccc(Cn3cc4nc(-c5cccc(F)c5F)nc-4cn3)nn2)c(Cl)c1` has EC50 smaller than 700 nM.
Reply: yes

Query: I'd appreciate it if you could check whether `Fc1cccc(-c2nc3cnn(Cc4ccc(-c5ccc(C(F)(F)F)cc5)nn4)cc-3n2)c1F` has EC50 smaller than 700 nM.
Reply: no

Query: I'd appreciate it if you could check whether `Fc1cccc(-c2nc3cnn(Cc4ccc5nsnc5c4)cc-3n2)c1F` has EC50 smaller than 700 nM.
Reply: no

Query: I'd appreciate it if you could check whether `Fc1ccccc1-c1nc2cnn(Cc3ccc(OC(F)(F)F)cc3)cc-2n1` has EC50 smaller than 700 nM.
Reply: no

Query: I'd appreciate it if you could check whether `COc1ccc(-c2ccc(Cn3cc4nc(-c5cccc(F)c5F)nc-4cn3)cc2N)c(C(F)(F)F)c1` has EC50 smaller than 700 nM.
Reply: yes

Query: I'd appreciate it if you could check whether `Fc1cccc(-c2nc3cnn(Cc4ccc(-c5ccc(-c6ccncc6)cc5C(F)(F)F)nn4)cc-3n2)c1F` has EC50 smaller than 700 nM.
Reply: no
